Type: in vivo, human
Settings: human, plasma, oral, 40 mg, Cmax, adjusted G mean, Cohort 3, asciminib ± rifampicin; linear mixed effects model
ENDPOINT: Cmax

Cmax for `O=C(Nc1ccc(OC(F)(F)Cl)cc1)c1cnc(N2CC[C@@H](O)C2)c(-c2ccn[nH]2)c1` ?
559 ng/mL

----------
Format: in vivo, human
Conditions: human, plasma, oral, 40 mg, AUClast, adjusted G mean, Cohort 5, asciminib ± clarithromycin; linear mixed effects model
ENDPOINT: AUC(0-t) (ng·h/mL)
Kindly answer with a numeric value in ng·h/mL, unit omitted.

Field request: AUC(0-t) | item: `O=C(Nc1ccc(OC(F)(F)Cl)cc1)c1cnc(N2CC[C@@H](O)C2)c(-c2ccn[nH]2)c1`
5670

----------
Type: in vivo, human
Conditions: human, plasma, po, 40 mg
ENDPOINT: AUC(0-t) (ng·h/mL)
Numbers only here, please. The scale is ng·h/mL.

GET /values?readout=AUC(0-t)&item= `O=C(Nc1ccc(OC(F)(F)Cl)cc1)c1cnc(N2CC[C@@H](O)C2)c(-c2ccn[nH]2)c1`
9200

----------
Format: in vivo, human
Conditions: human, plasma, oral, 40 mg
ENDPOINT: Cmax (ng/mL)
The response must be a number in ng/mL with no trailing unit.

// Cmax lookup, key: `O=C(Nc1ccc(OC(F)(F)Cl)cc1)c1cnc(N2CC[C@@H](O)C2)c(-c2ccn[nH]2)c1`
943

----------
Assay type: in vivo, human
Settings: human, plasma, po, 40 mg, AUClast, adjusted G mean, Cohort 1, asciminib ± itraconazole (oral solution); linear mixed effects model
ENDPOINT: AUC(0-t) (ng·h/mL)
Please give a number only; it is taken to be in ng·h/mL.

Dear colleague, I am looking for the recorded AUC(0-t) of the following compound: O=C(Nc1ccc(OC(F)(F)Cl)cc1)c1cnc(N2CC[C@@H](O)C2)c(-c2ccn[nH]2)c1 [Asciminib]
6950

----------
Format: in vivo, human
Conditions: human, plasma, oral, 40 mg, AUCinf, adjusted G mean, Cohort 2, asciminib ± quinidine; linear mixed effects model
ENDPOINT: AUC(0-inf) (ng·h/mL)
Express it in ng·h/mL; write the number only.

Query: AUC(0-inf); subject: `O=C(Nc1ccc(OC(F)(F)Cl)cc1)c1cnc(N2CC[C@@H](O)C2)c(-c2ccn[nH]2)c1`
6750

----------
Type: in vivo, human
Settings: human, plasma, po, 40 mg
ENDPOINT: Cmax (ng/mL)
Only the number, expressed in ng/mL, is required.

If you can, please state the reported Cmax value of O=C(Nc1ccc(OC(F)(F)Cl)cc1)c1cnc(N2CC[C@@H](O)C2)c(-c2ccn[nH]2)c1 [Asciminib] .
943

----------
Assay type: in vivo, human
Conditions: human, plasma, oral, 40 mg, AUCinf, adjusted G mean, Cohort 5, asciminib ± clarithromycin; linear mixed effects model
ENDPOINT: AUC(0-inf) (ng·h/mL)
The response must be a number in ng·h/mL with no trailing unit.

Which AUC(0-inf) reading was recorded for the compound `O=C(Nc1ccc(OC(F)(F)Cl)cc1)c1cnc(N2CC[C@@H](O)C2)c(-c2ccn[nH]2)c1` ?
5740

----------
Assay type: in vivo, human
Details: human, plasma, po, 40 mg, Cmax, adjusted G mean, Cohort 1, asciminib ± itraconazole (oral solution); linear mixed effects model
ENDPOINT: Cmax (ng/mL)
Express it in ng/mL; write the number only.

I am curious: what Cmax value has been reported for O=C(Nc1ccc(OC(F)(F)Cl)cc1)c1cnc(N2CC[C@@H](O)C2)c(-c2ccn[nH]2)c1 [Asciminib] ?
679

Data provenance is paper PMC9283742.
